The following molecules are listed with their measured EC50 values.
# Test system: hepatitis C replicon
# PROCEDURE SUMMARY: hepatitis C replicon EC50
# Format: cell-based
# CONDITION CONTEXT: Hepatitis C virus; Table 3; hepatitis C replicon; read-out: EC50

Example cases with answers are listed next.
CCn1c(O[C@@H]2C[C@H]3C(=O)N[C@]4(C(=O)NS(=O)(=O)N(C)C)C[C@H]4/C=C\CCCCC[C@H](NC(=O)OC(C)(C)C)C(=O)N3C2)nc2ccccc21 [Compound 1132] :: < 0.01 µM
CNC(=O)COc1ccccc1S(=O)(=O)NC(=O)[C@@]12C[C@H]1/C=C\CCCCC[C@H](NC(=O)OC(C)(C)C)C(=O)N1C[C@H](OC(=O)N3Cc4cccc(F)c4C3)C[C@H]1C(=O)N2 [Compound 1084] :: > 0.1 µM

Moving on to another molecule below.
Query: Please report EC50 for the following molecule: CC1(S(=O)(=O)NC(=O)[C@@]23C[C@H]2/C=C\CCCCC[C@H](Nc2cccc(NS(C)(=O)=O)c2)C(=O)N2C[C@H](OC(=O)N4Cc5cccc(F)c5C4)C[C@H]2C(=O)N3)CC1 [Compound 1122]
Reply: 0.01 to 0.1 µM

* * *

# Test system: hepatitis C replicon
# PROCEDURE SUMMARY: hepatitis C replicon EC50
# Type: cell-based
# CONDITION CONTEXT: Hepatitis C virus; Table 2; hepatitis C replicon; read-out: EC50
Below: a set of entries, each annotated with reported EC50.

Sample records with EC50:
O=C1N[C@]2(C(=O)O)C[C@H]2/C=C\CCCCC[C@H](Nc2ccccc2)C(=O)N2C[C@H](Oc3nc4ccccc4s3)C[C@@H]12 :: > 500 nM
COc1ccc2c(O[C@@H]3C[C@H]4C(=O)N[C@]5(C(=O)NS(=O)(=O)C6(C)CC6)C[C@H]5/C=C\CCCCC[C@H](Nc5cccc(C(F)(F)F)c5)C(=O)N4C3)cc(-c3nc(C(C)C)cs3)nc2c1C :: < 10 nM

Query: Using known records, supply EC50 for CC1(S(=O)(=O)NC(=O)[C@@]23C[C@H]2/C=C\CCCCC[C@H](Nc2ccc(F)cc2)C(=O)N2C[C@H](Oc4nc5ccccc5s4)C[C@H]2C(=O)N3)CC1
Reply: 10 to 75 nM

Query: Please list EC50 recorded for the compound CC(=O)N(Cc1ccccc1)[C@H]1CCCCC/C=C\[C@@H]2C[C@@]2(C(=O)NS(=O)(=O)C2(C)CC2)NC(=O)[C@@H]2C[C@@H](Oc3nc4ccccc4s3)CN2C1=O
Reply: > 500 nM

Query: Supply recorded EC50 for COc1ccc2c(O[C@@H]3C[C@H]4C(=O)N[C@]5(C(=O)NS(=O)(=O)C6(C)CC6)C[C@H]5/C=C\CCCCC[C@H](Nc5cccc(OC(F)(F)F)c5)C(=O)N4C3)cc(-c3nc(C(C)C)cs3)nc2c1C here.
Reply: < 10 nM

Query: Give EC50 for the following compound: COc1ccc2c(O[C@@H]3C[C@H]4C(=O)N[C@]5(C(=O)NS(=O)(=O)C6(C)CC6)C[C@H]5/C=C\CCCCC[C@H](Nc5ccccc5)C(=O)N4C3)cc(-c3ccccc3)nc2c1
Reply: < 10 nM

Query: Note down EC50 recorded for O=C1N[C@]2(C(=O)NS(=O)(=O)C3CC3)C[C@H]2/C=C\CCCCC[C@H](Nc2ccc(F)cc2)C(=O)N2C[C@H](Oc3nc4ccccc4s3)C[C@@H]12
Reply: 75 to 500 nM

Query: Return the recorded EC50 value; entry: COc1ccc2c(O[C@@H]3C[C@H]4C(=O)N[C@]5(C(=O)NS(=O)(=O)C6(C)CC6)C[C@H]5/C=C\CCCCC[C@H](Nc5cccc(F)c5)C(=O)N4C3)cc(-c3ccccc3)nc2c1
Reply: < 10 nM

Query: Output measured EC50 for this item: COc1ccc2c(O[C@@H]3C[C@H]4C(=O)N[C@]5(C(=O)NS(=O)(=O)C6CC6)C[C@H]5/C=C\CCCCC[C@H](Nc5ccc(F)c(C(F)(F)F)c5)C(=O)N4C3)cc(-c3nc(C(C)C)cs3)nc2c1C
Reply: < 10 nM

Query: Input Cc1ccc2nc(O[C@@H]3C[C@H]4C(=O)N[C@]5(C(=O)NS(=O)(=O)C6(C)CC6)C[C@H]5/C=C\CCCCC[C@H](Nc5ccccc5)C(=O)N4C3)n(C(C)C)c2c1 , output reported EC50.
Reply: 10 to 75 nM

Query: Note down EC50 recorded for COc1ccc2c(O[C@@H]3C[C@H]4C(=O)N[C@]5(C(=O)NS(=O)(=O)C6CC6)C[C@H]5/C=C\CCCCC[C@H](Nc5cccc(F)c5)C(=O)N4C3)cc(-c3nc(C(C)C)cs3)nc2c1C
Reply: < 10 nM

Query: Determine from records and report EC50 for COc1ccc2c(O[C@@H]3C[C@H]4C(=O)N[C@]5(C(=O)NS(=O)(=O)C6(C)CC6)C[C@H]5/C=C\CCCCC[C@H](Nc5ccccc5)C(=O)N4C3)cc(-c3nc(C(C)C)cs3)nc2c1C
Reply: < 10 nM

Query: Report EC50, nothing else, for this compound: CC1(S(=O)(=O)NC(=O)[C@@]23C[C@H]2/C=C\CCCCC[C@H](Nc2ccccc2)C(=O)N2C[C@H](Oc4nc5ccccc5nc4-c4cccs4)C[C@H]2C(=O)N3)CC1
Reply: 10 to 75 nM

Query: Give a short answer stating reported EC50 for O=C1N[C@]2(C(=O)NS(=O)(=O)C3CC3)C[C@H]2/C=C\CCCCC[C@H](Nc2ccc(F)c(C(F)(F)F)c2)C(=O)N2C[C@H](Oc3nccc4ccccc34)C[C@@H]12 .
Reply: < 10 nM

Query: Return reported EC50. Input compound: CC1(S(=O)(=O)NC(=O)[C@@]23C[C@H]2/C=C\CCCCC[C@H](Nc2cc(F)cc(C(F)(F)F)c2)C(=O)N2C[C@H](Oc4nc5ccccc5o4)C[C@H]2C(=O)N3)CC1
Reply: 75 to 500 nM

Query: Specify reported EC50 for the compound shown: COc1ccc2c(O[C@@H]3C[C@H]4C(=O)N[C@]5(C(=O)NS(=O)(=O)N(C)C)C[C@H]5/C=C\CCCCC[C@H](Nc5ccccc5)C(=O)N4C3)cc(-c3nc(C(C)C)cs3)nc2c1C
Reply: < 10 nM

Query: Given CC(C)n1c(O[C@@H]2C[C@H]3C(=O)N[C@]4(C(=O)NS(=O)(=O)C5(C)CC5)C[C@H]4CCCCCCC[C@H](Nc4cc(F)cc(C(F)(F)F)c4)C(=O)N3C2)nc2ccccc21 , respond with its EC50.
Reply: 75 to 500 nM

Query: # return recorded EC50 for entry CC1(S(=O)(=O)NC(=O)[C@@]23C[C@H]2/C=C\CCCCC[C@H](Nc2cc(F)cc(C(F)(F)F)c2)C(=O)N2C[C@H](Oc4nc5ccccc5s4)C[C@H]2C(=O)N3)CC1
Reply: 10 to 75 nM

Query: Report EC50, nothing else, for this compound: COc1ccc2c(O[C@@H]3C[C@H]4C(=O)N[C@]5(C(=O)NS(=O)(=O)N(C)C)C[C@H]5/C=C\CCCCC[C@H](Nc5ccc(F)cc5)C(=O)N4C3)cc(-c3nc(C(C)C)cs3)nc2c1C
Reply: < 10 nM

* * *

# SYSTEM NAME: NS3/NS4 complexes (Hepatitis C virus genotype 1a)
# Sequence (P27958 1027-1657): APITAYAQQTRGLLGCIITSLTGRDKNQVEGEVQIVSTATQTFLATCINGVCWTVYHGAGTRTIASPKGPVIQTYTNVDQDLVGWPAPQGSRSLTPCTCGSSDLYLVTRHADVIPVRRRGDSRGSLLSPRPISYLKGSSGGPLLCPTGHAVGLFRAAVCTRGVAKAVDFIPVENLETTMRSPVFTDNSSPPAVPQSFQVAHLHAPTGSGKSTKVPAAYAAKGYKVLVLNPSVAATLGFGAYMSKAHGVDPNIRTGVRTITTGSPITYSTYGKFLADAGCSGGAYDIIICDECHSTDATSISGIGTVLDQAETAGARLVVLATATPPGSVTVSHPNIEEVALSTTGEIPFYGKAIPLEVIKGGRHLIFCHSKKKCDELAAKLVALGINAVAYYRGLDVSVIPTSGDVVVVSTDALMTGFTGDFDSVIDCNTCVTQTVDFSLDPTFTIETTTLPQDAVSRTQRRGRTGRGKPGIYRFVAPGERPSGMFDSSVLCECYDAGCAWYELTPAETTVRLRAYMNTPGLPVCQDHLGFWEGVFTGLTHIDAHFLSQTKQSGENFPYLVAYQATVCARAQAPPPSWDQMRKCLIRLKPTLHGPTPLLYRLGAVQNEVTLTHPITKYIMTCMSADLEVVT
# Sequence (P27958 1658-1711): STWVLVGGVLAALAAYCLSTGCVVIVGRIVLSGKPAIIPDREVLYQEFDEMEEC
# PROCEDURE SUMMARY: NS3/NS4 inhibition activity (IC50)
# Type: biochemical
# CONDITION CONTEXT: Table 3, read-out: IC50
pIC50: −log10 of the molar value.
PARAMETER: pIC50

CC(C)(C)OC(=O)N[C@H]1CCCCC/C=C\[C@@H]2C[C@@]2(C(=O)NOc2ccccc2)NC(=O)[C@@H]2C[C@@H](Oc3nc4ccccc4s3)CN2C1=O :: 7.00 to 8.00
Cc1cccc2nc(O[C@@H]3C[C@H]4C(=O)N[C@]5(C(=O)NS(=O)(=O)C6CC6)C[C@H]5/C=C\CCCCC[C@H](NC(=O)OC(C)(C)C)C(=O)N4C3)sc12 :: > 8.00
CN(C)S(=O)(=O)NC(=O)[C@@]12C[C@H]1/C=C\CCCCC[C@H](NC(=O)OC(C)(C)C)C(=O)N1C[C@H](Oc3nc4ccccc4n3C)C[C@H]1C(=O)N2 :: > 8.00

Could you now look at the following compound, please?
Query: Given CC(C)(C)OC(=O)N[C@H]1CCCCC/C=C\[C@@H]2C[C@@]2(C(=O)O)NC(=O)[C@@H]2C[C@@H](Oc3nc4cccc(F)c4o3)CN2C1=O , respond with its pIC50.
Reply: 7.00 to 8.00

* * *

# SYSTEM NAME: NS3/NS4 complexes (Hepatitis C virus genotype 1a)
# PROCEDURE SUMMARY: NS3/NS4 inhibition activity (IC50)
# Type: biochemical
# CONDITION CONTEXT: Table 2, read-out: IC50
pIC50: −log10 of the molar value.
PARAMETER: pIC50

CC1(S(=O)(=O)NC(=O)[C@@]23C[C@H]2/C=C\CCCCC[C@H](Nc2cccc(C(F)(F)F)c2)C(=O)N2C[C@H](Oc4nc5ccc(Cl)cc5s4)C[C@H]2C(=O)N3)CC1 [Compound 226] :: > 8.00
CC(=O)N(Cc1ccccc1)[C@H]1CCCCC/C=C\[C@@H]2C[C@@]2(C(=O)NS(=O)(=O)C2CC2)NC(=O)[C@@H]2C[C@@H](Oc3nc4ccccc4s3)CN2C1=O [Compound 316] :: 7.12 to 8.00

Now for a further compound.
Query: Return reported pIC50. Input compound: COc1ccc2c(O[C@@H]3C[C@H]4C(=O)N[C@]5(C(=O)NS(=O)(=O)C6(C)CC6)C[C@H]5/C=C\CCCCC[C@H](Nc5cc(F)cc(F)c5)C(=O)N4C3)cc(-c3nc(C(C)C)cs3)nc2c1C [Compound 363]
Reply: > 8.00
